# Measured On: hGGT (Homo sapiens, UniProt P19440)
# Construct: lacking the transmembrane domain; made in house; host or cells: Pichia pastoris
# Sequence (P19440 381-569 limits assumed): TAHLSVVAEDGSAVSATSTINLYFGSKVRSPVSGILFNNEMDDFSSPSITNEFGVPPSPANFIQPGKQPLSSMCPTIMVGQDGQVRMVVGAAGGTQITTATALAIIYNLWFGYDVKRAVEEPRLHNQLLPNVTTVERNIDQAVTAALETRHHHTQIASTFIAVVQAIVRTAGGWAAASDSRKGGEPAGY
# Sequence (P19440 27-380 limits assumed): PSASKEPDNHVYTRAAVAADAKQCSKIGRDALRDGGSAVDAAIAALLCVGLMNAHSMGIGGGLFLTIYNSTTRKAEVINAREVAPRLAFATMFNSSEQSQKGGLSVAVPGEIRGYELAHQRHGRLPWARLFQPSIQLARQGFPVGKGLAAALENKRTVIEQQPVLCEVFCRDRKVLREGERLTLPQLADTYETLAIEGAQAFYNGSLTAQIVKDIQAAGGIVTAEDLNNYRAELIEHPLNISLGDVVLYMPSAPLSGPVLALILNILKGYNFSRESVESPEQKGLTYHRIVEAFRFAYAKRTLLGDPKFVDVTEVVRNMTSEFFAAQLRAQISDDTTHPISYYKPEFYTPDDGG
# Test Summary: L-Glutamate Release Assay (Hydrolysis of GSH)
# Assay type: biochemical
# Measurement Conditions: GSH hydrolysis; Table 5; read-out: GSH Kii
Outcome Measure: Ki (µM)

// below: answered compounds
> print(dat)
                                   compound  result.value
1  Nc1ccc(S(=O)(=O)Nc2nnc(Cc3ccccc3)s2)cc1 [Compound 25]           242
2  Nc1ccc(Cc2nnc(NS(=O)(=O)c3ccc(N)cc3)s2)cc1 [Compound 23]           102
3  Nc1ccc(S(=O)(=O)Nc2nnc(Cc3ccc(F)cc3)s2)cc1 [Compound 26]           355
4  Nc1ccc(S(=O)(=O)Nc2nnc(Cc3ccc(Cl)cc3)s2)cc1 [Compound 28]           419
5  Cc1ccc(Cc2nnc(NS(=O)(=O)c3ccc(N)cc3)s2)cc1 [Compound 22]            82

(P) Nc1ccc(S(=O)(=O)Nc2nnc(Cc3ccc(Cl)c(Cl)c3)s2)cc1 [Compound 29]
(Q) CN(C)c1ccc(Cc2nnc(NS(=O)(=O)c3ccc(N)cc3)s2)cc1 [Compound 27]
(R) Cc1cccc(Cc2nnc(NS(=O)(=O)c3ccc(N)cc3)s2)c1 [Compound 24]
Incoming: Order field: Ki | Direction: descending (largest first) Use the labels to give the ranking in the order requested.
Outgoing: P, Q, R
(P: 905 µM, Q: 363 µM, R: 121 µM)
